# System: M21
# method notes: Antiproliferative activity against human M21 cells after 48 hrs by sulforhodamine B assay
# Type: functional, cell-based
# condition description: M21, 48 h
Simple rule here: IC50 less than 50 nM is Criterion met, otherwise Criterion not met.

*Q* Bench note: check whether "Cc1ccc2cccc(OS(=O)(=O)c3ccc(N4CCNC4=O)cc3)c2n1" shows IC50 below 50 nM
*A* Criterion not met

*Q* Follow-up item: "COc1cccc(OS(=O)(=O)c2ccc(N3CCCNC3=O)cc2)c1"
*A* Criterion not met

*Q* Follow-up item: "Cc1ccc(OS(=O)(=O)c2ccc(N3CCCNC3=O)cc2)cc1"
*A* Criterion not met

*Q* Follow-up item: "Cc1cccc(OS(=O)(=O)c2ccc(N3CCNC3=O)cc2)c1C"
*A* Criterion met

*Q* Follow-up item: "Cc1cccc(OS(=O)(=O)c2ccc(N3CCNC3=O)cc2)c1"
*A* Criterion not met

*Q* Follow-up item: "Cc1ccccc1OS(=O)(=O)c1ccc(N2CCCNC2=O)cc1"
*A* Criterion not met

*Q* Follow-up item: "O=C1NCCN1c1ccc(S(=O)(=O)Oc2ccc3[nH]ccc3c2)cc1"
*A* Criterion not met

*Q* Follow-up item: "O=C1NCCN1c1ccc(S(=O)(=O)Oc2ccc(F)c(F)c2)cc1"
*A* Criterion met

*Q* Follow-up item: "CCc1ccccc1OS(=O)(=O)c1ccc(N2CCNC2=O)cc1"
*A* Criterion not met

*Q* Follow-up item: "O=C1NCCCN1c1ccc(S(=O)(=O)Oc2cccc(F)c2)cc1"
*A* Criterion not met

*Q* Follow-up item: "CN(C)c1ccc(OS(=O)(=O)c2ccc(N3CCNC3=O)cc2)cc1"
*A* Criterion not met
